- measurement-notes: Probe fluorescence ratio response to linolenic acid relative to ADIFAB2
- Assay type: binding
- condition-info: response relative to ADIFAB2
quantity-measured: DR/DR LNA
Provide a numeric answer; units are not to be included.

Use the examples below as a reference point.
molecule	DR/DR LNA
47I2, L72A (protein, listed as Rattus norvegicus, PEPTIDE (1)...(131) wild-type rat intestinal fatty acid binding protein) AFDGTWKVDRNENYEKFMEKMGINVVKRKLGAHDNLKLTITQEGNKITVKESSNFRNIDVVFELGVDFAYSAADGTELTGTWTMEGNKLVGKFKRVDNGKELIAVREISGNELIQTYTYEGVEAKRIFKKE	1.19
104S, 72A (protein, listed as Rattus norvegicus, PEPTIDE (1)...(131) wild-type rat intestinal fatty acid binding protein) AFDGTWKVDRNENYEKFMEKMGINVVKRKLGAHDNLKLTITQEGNKFTVKESSNFRNIDVVFELGVDFAYSAADGTELTGTWTMEGNKLVGKFKRVDNGKELISVREISGNELIQTYTYEGVEAKRIFKKE	1.538
72V 73W 74S (protein, listed as Rattus norvegicus, PEPTIDE (1)...(131) wild-type rat intestinal fatty acid binding protein) AFDGTWKVDRNENYEKFMEKMGINVVKRKLGAHDNLKLTITQEGNKFTVKESSNFRNIDVVFELGVDFAYSVWSGTELTGTWTMEGNKLVGKFKRVDNGKELIAVREISGNELIQTYTYEGVEAKRIFKKE	2.044
126A, 72A (protein, listed as Rattus norvegicus, PEPTIDE (1)...(131) wild-type rat intestinal fatty acid binding protein) AFDGTWKVDRNENYEKFMEKMGINVVKRKLGAHDNLKLTITQEGNKFTVKESSNFRNIDVVFELGVDFAYSAADGTELTGTWTMEGNKLVGKFKRVDNGKELIAVREISGNELIQTYTYEGVEAKAIFKKE	1.36
38Y, 72A (protein, listed as Rattus norvegicus, PEPTIDE (1)...(131) wild-type rat intestinal fatty acid binding protein) AFDGTWKVDRNENYEKFMEKMGINVVKRKLGAHDNLKYTITQEGNKFTVKESSNFRNIDVVFELGVDFAYSAADGTELTGTWTMEGNKLVGKFKRVDNGKELIAVREISGNELIQTYTYEGVEAKRIFKKE	1.884
18I 31L 73L 72A (protein, listed as Rattus norvegicus, PEPTIDE (1)...(131) wild-type rat intestinal fatty acid binding protein) AFDGTWKVDRNENYEKFIEKMGINVVKRKLLAHDNLKLTITQEGNKFTVKESSNFRNIDVVFELGVDFAYSALDGTELTGTWTMEGNKLVGKFKRVDNGKELIAVREISGNELIQTYTYEGVEAKRIFKKE	0.857
14M 72M 117A (protein, listed as Rattus norvegicus, PEPTIDE (1)...(131) wild-type rat intestinal fatty acid binding protein) AFDGTWKVDRNENMEKFMEKMGINVVKRKLGAHDNLKLTITQEGNKFTVKESSNFRNIDVVFELGVDFAYSMADGTELTGTWTMEGNKLVGKFKRVDNGKELIAVREISGNELIQTATYEGVEAKRIFKKE	2.031
72S 73M 74A (protein, listed as Rattus norvegicus, PEPTIDE (1)...(131) wild-type rat intestinal fatty acid binding protein) AFDGTWKVDRNENYEKFMEKMGINVVKRKLGAHDNLKLTITQEGNKFTVKESSNFRNIDVVFELGVDFAYSSMAGTELTGTWTMEGNKLVGKFKRVDNGKELIAVREISGNELIQTYTYEGVEAKRIFKKE	2.567
55A1, 72A (protein, listed as Rattus norvegicus, PEPTIDE (1)...(131) wild-type rat intestinal fatty acid binding protein) AFDGTWKVDRNENYEKFMEKMGINVVKRKLGAHDNLKLTITQEGNKFTVKESSNARNIDVVFELGVDFAYSAADGTELTGTWTMEGNKLVGKFKRVDNGKELIAVREISGNELIQTYTYEGVEAKRIFKKE	0.36
38Q, 72A (protein, listed as Rattus norvegicus, PEPTIDE (1)...(131) wild-type rat intestinal fatty acid binding protein) AFDGTWKVDRNENYEKFMEKMGINVVKRKLGAHDNLKQTITQEGNKFTVKESSNFRNIDVVFELGVDFAYSAADGTELTGTWTMEGNKLVGKFKRVDNGKELIAVREISGNELIQTYTYEGVEAKRIFKKE	1.986

Now look at this entry.
Read the entry 73K, 72A (protein, listed as Rattus norvegicus, PEPTIDE (1)...(131) wild-type rat intestinal fatty acid binding protein) AFDGTWKVDRNENYEKFMEKMGINVVKRKLGAHDNLKLTITQEGNKFTVKESSNFRNIDVVFELGVDFAYSAKDGTELTGTWTMEGNKLVGKFKRVDNGKELIAVREISGNELIQTYTYEGVEAKRIFKKE and write its reported DR/DR LNA.
0.28
